Organism: Rattus norvegicus
Experiment: DrugMatrix - Regimen: Daily Repeat
Assay type: toxicity, organism-based, Sprague-Dawley
Parameters: regimen Daily Repeat, gender Male, age 6-8 weeks
Conditions: in vivo, po, 0 mg/kg, 72 h, tissue Blood, route oral GAVAGE, dose level Control, time 3 day, vehicle 100 % WATER
Label yes (1) for high-side EOSINOPHIL (at or above 0.3%) and no (0) for low-side EOSINOPHIL (below it).

# MOLECULE, CAT
records = [
    ("CC(C)(C)NC[C@H](O)COc1nsnc1N1CCOCC1", "no (0)"),
    ("CCOC(N)=O", "yes (1)"),
    ("CCCCCCCCCCCCCCCC[n+]1ccccc1.[Br-]", "yes (1)"),
    ("OCCO", "no (0)"),
    ("O=C(O)c1cc(=O)c2c(OCC(O)COc3cccc4oc(C(=O)O)cc(=O)c34)cccc2o1", "yes (1)"),
    ("CCN(CC)CC#CCOC(=O)C(O)(c1ccccc1)C1CCCCC1 (centres undefined)", "no (0)"),
    ("CC[C@H]1OC(=O)[C@H](C)[C@@H](O[C@H]2C[C@@](C)(OC)[C@@H](O)[C@H](C)O2)[C@H](C)[C@@H](O[C@@H]2O[C@H](C)C[C@H](N(C)C)[C@H]2O)[C@](C)(O)C[C@@H](C)CN(C)[C@H](C)[C@@H](O)[C@]1(C)O", "yes (1)"),
    ("CCN[C@@H](C)Cc1cccc(C(F)(F)F)c1", "yes (1)"),
    ("O=P1(N(CCCl)CCCl)NCCCO1 (centres undefined) [CYCLOPHOSPHAMIDE ANHYDROUS]", "yes (1)"),
]

====

Measured POTASSIUM values are reported for all entries that follow.
Organism: Rattus norvegicus
Assay: DrugMatrix - Regimen: Daily Repeat
Type: toxicity, organism-based, Sprague-Dawley
Parameters: regimen Daily Repeat, gender Male, age 6-8 weeks
Conditions: in vivo, po, 0 mg/kg, 72 h, tissue Plasma, route oral GAVAGE, dose level Control, time 3 day, […]

# COMPOUND, UNIT_ABBREVIATION, POTASSIUM
measured = [
    ("CCn1cc(C(=O)O)c(=O)c2cc(F)c(N3CCNCC3)nc21", "MEQ/L", 5.95),
    ("CC[C@H](C)C(=O)O[C@H]1C[C@H](O)C=C2C=C[C@H](C)[C@H](CC[C@@H](O)C[C@@H](O)CC(=O)O)[C@H]21", "MEQ/L", 5.03),
    ("C#C[C@]1(O)CC[C@H]2[C@@H]3CCc4cc(O)ccc4[C@H]3CC[C@@]21C", "MEQ/L", 5.95),
    ("OCCN1CCN(CCCN2c3ccccc3Sc3ccc(C(F)(F)F)cc32)CC1", "MEQ/L", 5.78),
    ("NC[C@@H]1O[C@H](O[C@H]2[C@@H](O)[C@H](O[C@@H]3[C@@H](O)[C@H](N)C[C@H](N)[C@H]3O[C@H]3O[C@H](CN)[C@@H](O)[C@H](O)[C@H]3N)O[C@@H]2CO)[C@H](N)[C@@H](O)[C@@H]1O", "MEQ/L", 5.16),
    ("CC(CCc1ccc(O)cc1)NCCc1ccc(O)c(O)c1 (configuration not stated)", "MEQ/L", 6.13),
    ("CC(=O)Nc1nnc(S(N)(=O)=O)s1 [ACETAZOLAMIDE]", "MEQ/L", 5.56),
]

Recorded values, source ChEMBL document CHEMBL3885881.
